molecular target: Cytochrome P450 2D6 (Homo sapiens)
Sequence (P10635 whole entry): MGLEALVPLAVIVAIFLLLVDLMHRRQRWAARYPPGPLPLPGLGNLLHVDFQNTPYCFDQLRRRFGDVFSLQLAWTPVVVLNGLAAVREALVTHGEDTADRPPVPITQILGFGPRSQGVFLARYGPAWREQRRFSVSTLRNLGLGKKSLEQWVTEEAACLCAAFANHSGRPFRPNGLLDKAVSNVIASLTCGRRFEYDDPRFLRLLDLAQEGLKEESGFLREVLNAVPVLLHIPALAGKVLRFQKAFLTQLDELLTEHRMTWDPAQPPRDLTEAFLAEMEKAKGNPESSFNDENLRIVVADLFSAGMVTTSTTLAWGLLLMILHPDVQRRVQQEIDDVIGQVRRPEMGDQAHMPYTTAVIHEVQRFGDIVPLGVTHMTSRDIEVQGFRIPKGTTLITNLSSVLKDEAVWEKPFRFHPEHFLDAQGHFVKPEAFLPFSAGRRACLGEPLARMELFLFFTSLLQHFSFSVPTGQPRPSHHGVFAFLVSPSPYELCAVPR
readout.label: IC50

Q) Recall the recorded IC50 for COc1cnc(C(=O)Nc2ccc(F)c([C@]3(C)Cn4nc(C#N)cc4C(N)=N3)c2)cn1 with Cytochrome P450 2D6 (Homo sapiens) and state it.
A) > 30 µM

###

assay: Volume of distribution at steady state in dog at 0.25 mg/kg, iv; assay type: ADME, organism-based, Canis lupus familiaris; settings: in vivo, read-out: Vdss
readout.label: Vd (L/kg)
Write the answer as a number in L/kg, unit excluded.

Q) Recorded Vd of COc1cnc(C(=O)Nc2ccc(F)c([C@]3(C)Cn4nc(C#N)cc4C(N)=N3)c2)cn1 , please.
A) 4.2

###

test: Drug level in CD-1 mouse plasma at 10 mg/kg, po measured at 4 hr post dose; format: ADME, organism-based
readout.label: concentration at 4 h (ng/mL)
The reply should contain only the number, in ng/mL.

Q) Param item = COc1cnc(C(=O)Nc2ccc(F)c([C@]3(C)Cn4nc(C#N)cc4C(N)=N3)c2)cn1 ; retrieve measured concentration at 4 h.
A) 530

###

test: Volume of distribution at steady state in mouse at 0.28 mg/kg, iv; type: ADME, organism-based; settings: in vivo, read-out: Vdss
readout.label: Vd (L/kg)
Provide only the numeric value, understood in L/kg.

Q) // returns reported Vd for input COc1cnc(C(=O)Nc2ccc(F)c([C@]3(C)Cn4nc(C#N)cc4C(N)=N3)c2)cn1
A) 5.3

###

# IC50 per record follows
Molecular target: Cytochrome P450 1A2 (Homo sapiens)
Sequence (P05177 whole entry): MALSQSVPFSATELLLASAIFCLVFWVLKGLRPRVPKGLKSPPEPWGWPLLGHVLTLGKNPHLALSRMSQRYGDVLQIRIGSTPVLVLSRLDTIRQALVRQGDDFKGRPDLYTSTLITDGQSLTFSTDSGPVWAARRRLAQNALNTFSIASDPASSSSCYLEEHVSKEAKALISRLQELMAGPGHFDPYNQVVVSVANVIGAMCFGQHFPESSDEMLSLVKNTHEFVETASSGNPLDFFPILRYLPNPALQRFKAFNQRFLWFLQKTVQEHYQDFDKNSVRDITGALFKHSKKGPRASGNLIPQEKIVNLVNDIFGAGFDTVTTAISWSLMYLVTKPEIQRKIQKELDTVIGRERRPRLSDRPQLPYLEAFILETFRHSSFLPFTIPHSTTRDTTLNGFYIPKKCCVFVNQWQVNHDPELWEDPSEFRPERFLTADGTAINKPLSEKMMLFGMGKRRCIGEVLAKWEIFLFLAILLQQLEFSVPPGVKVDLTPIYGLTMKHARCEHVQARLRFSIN

{"columns": ["record.smiles", "readout.label", "measured"],
 "data": [
  ["COc1cnc(C(=O)Nc2ccc(F)c([C@]3(C)Cn4nc(C#N)cc4C(N)=N3)c2)cn1", "IC50", "> 30 µM"]
]}

Q) Name the reported IC50 value associated with the molecule C[C@@]1(c2cc(NC(=O)c3ccc(C#N)cn3)ccc2F)Cn2c(C#N)cnc2C(N)=N1
A) > 10 µM

###

test: Drug level in CD-1 mouse brain at 10 mg/kg, po measured at 4 hr post dose; format: ADME, organism-based; conditions: read-out: Ct
readout.label: concentration at 4 h (ng/g)
Supply the numeric figure in ng/g, leaving out any unit text.

Q) // query concentration at 4 h value for entry COc1cnc(C(=O)Nc2ccc(F)c([C@]3(C)Cn4nc(C#N)cc4C(N)=N3)c2)cn1
A) 402

###

assay: Oral bioavailability in dog at 2.5 mg/kg; assay type: ADME, organism-based, Canis lupus familiaris; conditions: in vivo
readout.label: bioavailability (%)
# unit: % | format: bare number

Q) Can you look up the measured bioavailability of COc1cnc(C(=O)Nc2ccc(F)c([C@]3(C)Cn4nc(C#N)cc4C(N)=N3)c2)cn1 for me?
A) 67

###

target: Voltage-gated inwardly rectifying potassium channel KCNH2 (Homo sapiens); test: Inhibition of hERG expressed in HEK293 cells at -80 mV holding potential by automated patch-clamp method
Sequence (Q12809 whole entry): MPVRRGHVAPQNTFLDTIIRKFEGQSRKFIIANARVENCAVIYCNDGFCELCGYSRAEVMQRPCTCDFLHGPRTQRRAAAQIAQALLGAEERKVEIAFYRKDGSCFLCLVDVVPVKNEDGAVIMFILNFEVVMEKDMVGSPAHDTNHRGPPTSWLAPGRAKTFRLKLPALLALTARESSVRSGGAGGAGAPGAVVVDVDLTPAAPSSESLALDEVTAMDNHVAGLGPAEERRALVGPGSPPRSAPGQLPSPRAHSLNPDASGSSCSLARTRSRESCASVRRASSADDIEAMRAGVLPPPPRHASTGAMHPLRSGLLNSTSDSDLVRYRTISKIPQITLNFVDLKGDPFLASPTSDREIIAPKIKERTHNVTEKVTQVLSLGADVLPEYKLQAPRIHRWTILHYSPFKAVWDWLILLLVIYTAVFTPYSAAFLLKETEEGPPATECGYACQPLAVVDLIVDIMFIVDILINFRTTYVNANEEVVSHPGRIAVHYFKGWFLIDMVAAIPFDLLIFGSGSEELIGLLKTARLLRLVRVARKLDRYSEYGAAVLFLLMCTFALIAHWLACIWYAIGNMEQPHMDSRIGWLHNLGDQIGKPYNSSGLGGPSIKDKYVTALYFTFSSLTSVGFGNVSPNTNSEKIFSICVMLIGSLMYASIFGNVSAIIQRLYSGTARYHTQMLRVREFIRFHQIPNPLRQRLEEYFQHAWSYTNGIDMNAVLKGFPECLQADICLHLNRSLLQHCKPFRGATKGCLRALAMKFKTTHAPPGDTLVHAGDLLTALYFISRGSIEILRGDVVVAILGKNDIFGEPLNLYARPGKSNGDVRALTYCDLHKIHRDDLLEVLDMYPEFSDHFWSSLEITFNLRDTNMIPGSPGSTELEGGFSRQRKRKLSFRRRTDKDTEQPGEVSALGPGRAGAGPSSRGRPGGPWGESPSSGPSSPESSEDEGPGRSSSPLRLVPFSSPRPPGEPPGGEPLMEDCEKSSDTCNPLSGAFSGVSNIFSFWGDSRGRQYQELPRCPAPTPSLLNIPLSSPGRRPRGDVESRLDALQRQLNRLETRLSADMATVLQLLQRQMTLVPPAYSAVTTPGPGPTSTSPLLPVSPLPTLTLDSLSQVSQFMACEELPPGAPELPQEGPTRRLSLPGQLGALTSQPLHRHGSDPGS
readout.label: IC50

{"columns": ["record.smiles", "assayed.system", "IC50"],
 "data": [
  ["C[C@@]1(c2cc(NC(=O)c3cnc(OCF)cn3)ccc2F)Cn2nc(C#N)cc2C(N)=N1", "Voltage-gated inwardly rectifying potassium channel KCNH2 (Homo sapiens)", "> 10 µM"],
  ["Cc1nc(C(=O)Nc2ccc(F)c([C@]3(C)Cn4nc(C#N)cc4C(N)=N3)c2)co1", "Voltage-gated inwardly rectifying potassium channel KCNH2 (Homo sapiens)", "> 10 µM"],
  ["C[C@@]1(c2cc(NC(=O)c3ccc(C#N)cn3)ccc2F)Cn2cc(C#N)nc2C(N)=N1", "Voltage-gated inwardly rectifying potassium channel KCNH2 (Homo sapiens)", "6.6 µM"],
  ["COc1cnc(C(=O)Nc2ccc(F)c([C@]3(C)Cn4nc(C#N)cc4C(N)=N3)c2)cn1", "Voltage-gated inwardly rectifying potassium channel KCNH2 (Homo sapiens)", "> 10 µM"],
  ["C[C@@]1(c2cc(NC(=O)c3ccc(C#N)cn3)ccc2F)Cn2c(C#N)cnc2C(N)=N1", "Voltage-gated inwardly rectifying potassium channel KCNH2 (Homo sapiens)", "> 10 µM"]
]}

Now look at this entry.
Q) Look up IC50: C[C@@]1(c2cc(NC(=O)c3cnc(C(F)F)cn3)ccc2F)Cn2nc(C#N)cc2C(N)=N1
A) > 10 µM

###

experiment: Free drug concentration in rat brain measured after 5 hrs by HPLC-MS/MS method; assay type: ADME, tissue-based
Listed molecules paired with reported fraction unbound at 5 h
# print the numeric value only

{"columns": ["record.smiles", "fraction unbound at 5 h"],
 "data": [
  ["C[C@@]1(c2cc(NC(=O)c3ccc(C#N)cn3)ccc2F)Cn2c(C#N)cnc2C(N)=N1", 0.15]
]}

Q) Look up fraction unbound at 5 h: COc1cnc(C(=O)Nc2ccc(F)c([C@]3(C)Cn4nc(C#N)cc4C(N)=N3)c2)cn1
A) 0.015

###

experiment: Cmax in mouse at 2.1 mg/kg, po; assay type: ADME, organism-based; parameters: route oral, dose 2.1 mg/kg; details: in vivo
readout.label: Cmax (ng/mL)
Field: numeric (ng/mL). Do not append units.

Q) I'd like to know its Cmax. The compound in question is COc1cnc(C(=O)Nc2ccc(F)c([C@]3(C)Cn4nc(C#N)cc4C(N)=N3)c2)cn1
A) 160

###

assay: Drug level in CD-1 mouse plasma at 10 mg/kg, po measured at 2 hr post dose; assay type: ADME, organism-based
readout.label: concentration at 2 h (ng/mL)
Write it as a number; the unit ng/mL goes unstated.

Q) // query concentration at 2 h value for entry COc1cnc(C(=O)Nc2ccc(F)c([C@]3(C)Cn4nc(C#N)cc4C(N)=N3)c2)cn1
A) 866

###

assay: Cmax in dog at 2.5 mg/kg, po; format: ADME, organism-based, Canis lupus familiaris; design: route oral, dose 2.5 mg/kg; conditions: in vivo
readout.label: Cmax (ng/mL)
I only need the number, in ng/mL, no unit after it.

Q) Which value of Cmax has been reported for COc1cnc(C(=O)Nc2ccc(F)c([C@]3(C)Cn4nc(C#N)cc4C(N)=N3)c2)cn1 in the records?
A) 352

###

target: Cytochrome P450 3A4 (Homo sapiens); assay: Inhibition of human CYP3A4 using testosterone as substrate by fluorescence plate reader analysis; format: ADME
Sequence (P08684 whole entry): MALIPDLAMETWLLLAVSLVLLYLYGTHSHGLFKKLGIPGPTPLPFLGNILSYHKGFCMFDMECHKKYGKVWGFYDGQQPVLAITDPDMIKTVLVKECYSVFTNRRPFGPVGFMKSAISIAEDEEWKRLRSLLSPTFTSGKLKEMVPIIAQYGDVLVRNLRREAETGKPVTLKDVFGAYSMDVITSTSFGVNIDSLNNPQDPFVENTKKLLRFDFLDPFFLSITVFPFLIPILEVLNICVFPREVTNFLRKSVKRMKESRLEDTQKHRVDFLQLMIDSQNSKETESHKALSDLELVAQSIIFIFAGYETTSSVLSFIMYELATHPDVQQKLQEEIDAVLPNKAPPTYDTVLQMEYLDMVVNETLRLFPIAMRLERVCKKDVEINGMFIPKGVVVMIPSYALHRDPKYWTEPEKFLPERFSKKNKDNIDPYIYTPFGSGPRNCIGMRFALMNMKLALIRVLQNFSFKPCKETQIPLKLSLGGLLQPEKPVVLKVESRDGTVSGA
readout.label: pIC50
Notebook: values listed as pIC50 are -log10 of the concentration (mol/L).

Q) I would be grateful if you could share the reported pIC50 for C[C@@]1(c2cc(NC(=O)c3ccc(C#N)cn3)ccc2F)Cn2c(C#N)cnc2C(N)=N1 .
A) 5.82

###

test system: MDR1; assay: Efflux ratio of apparent permeability in dog MDCK-MDR1 cells; assay type: ADME, cell-based, Canis lupus familiaris
Label -1 if efflux ratio falls below 8; label 1 in every other case.

Some solved entries appear below for comparison.
{"columns": ["record.smiles", "answer.label"],
 "data": [
  ["COc1cnc(C(=O)Nc2ccc(F)c([C@]3(C)Cn4nc(C#N)cc4C(N)=N3)c2)cn1", -1],
  ["Cc1nc(C(=O)Nc2ccc(F)c([C@]3(C)Cn4nc(C#N)cc4C(N)=N3)c2)co1", 1],
  ["C[C@@]1(c2cc(NC(=O)c3ccc(C#N)cn3)ccc2F)Cn2nc(C#N)cc2C(N)=N1", 1]
]}

Here is the next item to consider.
Q) Dear colleague, could you confirm whether C[C@@]1(c2cc(NC(=O)c3ccc(F)cn3)ccc2F)Cn2nc(C#N)cc2C(N)=N1 has efflux ratio at or above 8?
A) -1

###

assay: AUC (0 to last) in mouse at 2.1 mg/kg, po; assay type: ADME, organism-based; set-up: route oral, time 0 - last, dose 2.1 mg/kg; conditions: in vivo
readout.label: AUClast
Provide a numeric answer, followed by its unit.

Q) # AUClast lookup, item COc1cnc(C(=O)Nc2ccc(F)c([C@]3(C)Cn4nc(C#N)cc4C(N)=N3)c2)cn1
A) 1910 ng·h/mL
